- Tested on: HUVEC
- Experiment notes: Cytotoxicity against HUVEC assessed as reduction in cell viability incubated for 48 hrs by SRB assay
- Type: cell-based
- Measurement context: human
Assay readout: Activity

// below: answered molecules
[
  {
    "Given smiles": "COc1ccc2c(c1N)CCC/C(=C\\c1cc(OC)c(OC)c(OC)c1)C2=O",
    "Result": "Non-Toxic"
  },
  {
    "Given smiles": "COc1ccc2c(O)c(Cc3cc(OC)c(OC)c(OC)c3)ccc2c1",
    "Result": "Toxic"
  },
  {
    "Given smiles": "COc1ccc2c(c1O)CC/C(=C\\c1cc(OC)c(OC)c(OC)c1)C2=O",
    "Result": "Toxic"
  },
  {
    "Given smiles": "COc1ccc2c(c1N)CC/C(=C\\c1cc(OC)c(OC)c(OC)c1)C2=O",
    "Result": "Toxic"
  }
]

# next molecule below
Query :: Item under review: `COc1ccc2c(c1O)CCC/C(=C\c1cc(OC)c(OC)c(OC)c1)C2=O` . Reported Activity?
Result :: Non-Toxic

###

- Experiment notes: Selectivity index, ratio of GI50 for HUVEC to GI50 for human NCI-H460 cells
- Type: toxicity
- Measurement context: HUVEC versus NCI-H460 cells, read-out: RatioGI50
Assay readout: selectivity ratio
Output: the number by itself.

[
  {
    "Given smiles": "COc1ccc2c(c1O)CCC/C(=C\\c1cc(OC)c(OC)c(OC)c1)C2=O",
    "selectivity ratio": 10
  }
]

Next compound, please.
Query :: If you can, please state the reported selectivity ratio value of `COc1ccc2c(c1N)CCC/C(=C\c1cc(OC)c(OC)c(OC)c1)C2=O` .
Result :: 100
